CONDITION: 10 μM initial concentration; Complete (with NADPH); 15 min
READOUT_KIND: Test Article remaining, percent of initial concentration (%)
Reply numerically in %, unit not repeated.

{"COMPOUND": "CC1(C)CCSc2ccc(C#Cc3ccc(C(=O)O)cn3)cc21 [Tazarotenic acid]", "ENDPOINT_VALUE": 93.1}
{"COMPOUND": "CCOC(=O)c1ccc(C#Cc2ccc3c(c2)C(C)(C)CC[S+]3[O-])nc1 (stereo not shown) [Tazarotene sulfoxide]", "ENDPOINT_VALUE": 30.9}
{"COMPOUND": "CCOC(=O)c1ccc(C#Cc2ccc3c(c2)C(C)(C)CC(OC(=O)c2ccccc2)S3)nc1 (stereo not shown) [Compound 4]", "ENDPOINT_VALUE": 99.3}

Kindly consider the entry below.
Reported Test Article remaining, percent of initial concentration for CCOC(=O)c1ccc(C#Cc2ccc3c(c2)C(C)(C)CCS3)nc1 [Tazarotene] was 24.1

====

CONDITION: 10 μM initial concentration; Without NADPH; 45 min
Listed here are compounds together with their documented Test Article remaining, percent of initial concentration.

{"COMPOUND": "CC1(C)CCSc2ccc(C#Cc3ccc(C(=O)O)cn3)cc21", "ENDPOINT_VALUE": "106%"}
{"COMPOUND": "CCOC(=O)c1ccc(C#Cc2ccc3c(c2)C(C)(C)CC(OC(=O)c2ccccc2)S3)nc1 (stereo not shown)", "ENDPOINT_VALUE": "51.0%"}
{"COMPOUND": "CCOC(=O)c1ccc(C#Cc2ccc3c(c2)C(C)(C)CC[S+]3[O-])nc1 (stereo not shown) [Tazarotene sulfoxide]", "ENDPOINT_VALUE": "2.98%"}

Kindly consider the entry below.
Reported Test Article remaining, percent of initial concentration for CCOC(=O)c1ccc(C#Cc2ccc3c(c2)C(C)(C)CCS3)nc1 was 1.48%

====

Listed here are compounds together with their documented Test Article remaining, percent of initial concentration.
CONDITION: 10 μM initial concentration; Without NADPH; 60 min
Reply numerically in %, unit not repeated.

Would you please look over these solved cases?
{"COMPOUND": "CCOC(=O)c1ccc(C#Cc2ccc3c(c2)C(C)(C)CC(OC(=O)c2ccccc2)S3)nc1 (stereo not drawn)", "ENDPOINT_VALUE": 41.0}
{"COMPOUND": "CCOC(=O)c1ccc(C#Cc2ccc3c(c2)C(C)(C)CCS3)nc1", "ENDPOINT_VALUE": 0.55}

Reported Test Article remaining, percent of initial concentration for CCOC(=O)c1ccc(C#Cc2ccc3c(c2)C(C)(C)CC[S+]3[O-])nc1 (stereo not drawn) [Tazarotene sulfoxide] was 1.18

Data credit: patent US9062037B2
